Data provenance is patent US20260263521A1.

- Test system: cynomolgus CD200R1
- protocolDescription: SPR binding kinetics, cynomolgus CD200R1
- conditionsUsed: cynomolgus CD200R1-his captured on anti-His CM5 chip, 1:1 Langmuir fit
Recorded Ka by entry

{"molecule": "P001009v1: P001009 variant, LC S52 and LC S94 substituted with K and R; VH SEQ ID NO: 79 (antibody, V domains shown) VH: EVQLLESGGGLVQPGGSLRLSCAASGFTFSSYDMSWVRQAPGKGLEWVSWISHGGGSIYYADSVKGRFTISRDNSKNTLYLQMNSLRAEDTAVYYCARDAPAYSAPLFDYWGQGTLVTVSS VL: QSVLTQPPSASGTPGQRVTISCSGSSSNIGNNAVNWYQQLPGTAPKLLIYYDKNRPSGVPDRFSGSKSGTSASLAISGLRSEDEADYYCAAWDDRLSGYVFGGGTKLTVL", "units": "M⁻¹ s⁻¹", "Ka": "5.23e+06"}
{"molecule": "P001009v2: P001009 variant, LC S52 and LC D93 substituted with K and R; VH SEQ ID NO: 79 (antibody, V domains shown) VH: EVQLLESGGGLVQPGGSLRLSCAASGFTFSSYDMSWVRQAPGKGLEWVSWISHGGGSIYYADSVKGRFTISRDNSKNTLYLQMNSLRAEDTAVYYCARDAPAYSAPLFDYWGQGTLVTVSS VL: QSVLTQPPSASGTPGQRVTISCSGSSSNIGNNAVNWYQQLPGTAPKLLIYYDKNRPSGVPDRFSGSKSGTSASLAISGLRSEDEADYYCAAWDRSLSGYVFGGGTKLTVL", "units": "M⁻¹ s⁻¹", "Ka": "2.82e+06"}
{"molecule": "P001009: phage display anti-CD200R1 clone; VH SEQ ID NO: 79, VL SEQ ID NO: 94 (antibody, V domains shown) VH: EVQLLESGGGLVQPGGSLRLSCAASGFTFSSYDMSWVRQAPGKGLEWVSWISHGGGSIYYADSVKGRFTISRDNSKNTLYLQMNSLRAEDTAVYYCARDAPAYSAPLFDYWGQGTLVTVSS VL: QSVLTQPPSASGTPGQRVTISCSGSSSNIGNNAVNWYQQLPGTAPKLLIYYDSNRPSGVPDRFSGSKSGTSASLAISGLRSEDEADYYCAAWDDSLSGYVFGGGTKLTVL", "units": "M⁻¹ s⁻¹", "Ka": "5.63e+06"}
